Source of measurements: PubChem BioAssay AID652134

# target.or.system: Nuclear receptor subfamily 0 group B member 1 (Homo sapiens) (UniProt P51843)
# Sequence (P51843 whole entry, looked up): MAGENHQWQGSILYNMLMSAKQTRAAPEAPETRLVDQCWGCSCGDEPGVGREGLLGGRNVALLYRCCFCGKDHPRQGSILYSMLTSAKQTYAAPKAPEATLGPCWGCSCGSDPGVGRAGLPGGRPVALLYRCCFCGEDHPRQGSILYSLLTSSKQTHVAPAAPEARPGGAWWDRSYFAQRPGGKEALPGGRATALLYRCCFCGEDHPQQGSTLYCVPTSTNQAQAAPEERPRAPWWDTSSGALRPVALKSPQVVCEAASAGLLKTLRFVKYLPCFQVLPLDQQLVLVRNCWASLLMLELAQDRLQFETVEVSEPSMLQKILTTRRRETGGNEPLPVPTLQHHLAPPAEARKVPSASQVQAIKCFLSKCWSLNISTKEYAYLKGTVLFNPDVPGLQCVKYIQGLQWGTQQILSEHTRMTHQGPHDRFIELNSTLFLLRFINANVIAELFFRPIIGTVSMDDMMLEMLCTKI
# assay.explanation: DAX1 (NR0B1) inhibitors relieving SF-1 repression, confirmation, cell-based, luminescence, HEK293T, full-length DAX-1, SF-1 activated StAR promoter (AID 652134)
# experimental.context: HEK293T StAR-promoter luciferase reporter, SF-1/DAX-1 repression; at 6.8 µM; active compounds read high
Hit rate of the full screen: of about 2,400 compounds, about 2,100 (88%) were called active. The set was probably picked from earlier hits. A selection follows.
Answer no if inhibition is under 4%, and yes if it is 4% or more.

Please review the following examples before continuing.
compound	group
Cc1ccnc(NC(=O)CNC(=O)c2ccccc2)c1	no
CC[C@]1(O)C[C@@H]2CN(CCc3c([nH]c4ccccc34)[C@@](C(=O)OC)(c3cc4c(cc3OC)N(C)[C@H]3[C@@](O)(C(=O)OC)[C@H](OC(C)=O)[C@]5(CC)C=CCN6CC[C@]43[C@@H]65)C2)C1	yes
Cc1cc(C)c(C)c(S(=O)(=O)N2CCN(C(=O)c3ccc4c(=O)n5c(nc4c3)CCC5)CC2)c1C	no

**Q:** API: above_or_equal(metric=inhibition, cutoff=4%) for item CNCC(O)c1ccc(O)c(O)c1 (stereo not drawn)
**A:** no

**Q:** What about CN(C(=O)c1cc2c(=O)n3ccccc3nc2s1)C1CCCCC1 ?
**A:** yes

**Q:** What about Cc1ccc(N/C=C/C(=O)c2ccccc2)cc1C ?
**A:** yes

**Q:** What about CC[C@]1(O)CC2CN(CCc3c([nH]c4ccccc34)[C@@](C(=O)OC)(c3cc4c(cc3OC)N(C=O)[C@H]3[C@@](O)(C(=O)OC)[C@H](OC(C)=O)[C@]5(CC)C=CCN6CC[C@]43[C@@H]65)C2)C1 (stereo partly drawn) ?
**A:** yes

**Q:** What about Cc1ccccc1Nc1nc(N)nc(CSc2ccccc2)n1 ?
**A:** yes
